# target.or.test.system: Gamma-aminobutyric acid receptor subunit alpha-6/beta-3/gamma-2 (Rattus norvegicus) (UniProt P18508+P30191+P63079)
# assay.overview: Positive allosteric modulation of rat recombinant GABAA alpha6beta3alpha6-gamma2beta3 receptor expressed in Xenopus laevis oocytes assessed as maximal efficacy at -80 mV holding potential at 30 nM in presence of GABA EC1 to 1.5 by two-electrode voltage-clamp assay
# Assay type: cell-based
# details: Oocyte, filed as positive allosteric modulator
# binarize Efficacy: threshold 60% inclusive, high side Y, low side N

> print(dat)
                      smiles.representation  group.label
1  COc1ccc(-n2nc3c4ccc(F)cc4[nH]cc-3c2=O)cc1            N
2  COc1ccc(-n2nc3c4ccc(OC)cc4[nH]cc-3c2=O)cc1            Y
3  COc1ccc(-n2nc3c4ccc(Cl)cc4[nH]cc-3c2=O)cc1            N
4  COc1ccc(-n2nc3c4ccc(C(F)(F)F)cc4[nH]cc-3c2=O)cc1            Y
5  COc1ccc(-n2nc3c4ccc(Br)cc4[nH]cc-3c2=O)cc1            Y
